Ref: PubChem BioAssay AID588479

Molecular target: RasACT
Assay: inhibitors of GTP binding to eight small GTPases, SAR follow-up, biochemical, round 1 SAR, Mg buffer, multiplex flow cytometry (AID 588479)
Conditions: multiplex GST-GTPase beads, Bodipy-GTP binding, constitutively active
Inconclusive results are not listed.

>  <compound_structure_string>
CC1(C)Cc2c(sc(NC(=S)Nc3ccccc3)c2C(=O)O)CO1

>  <EC50>
1.78 µM

$$$$

----------
Target: RacWT
Assay: inhibitors of GTP binding to eight small GTPases, SAR follow-up, biochemical, round 1 SAR, Mg buffer, multiplex flow cytometry (AID 588479)
Conditions: multiplex GST-GTPase beads, Bodipy-GTP binding, wild type
pEC50: −log10 of the molar value. Records with an inconclusive call do not appear.

>  <compound_structure_string>
COc1ccc(C(=O)NC(=S)Nc2sc3c(c2C(=O)O)CC(C)(C)OC3)cc1

>  <experimental_system>
RacWT

>  <pEC50>
6.88

$$$$
>  <compound_structure_string>
CC1(C)CCc2sc(NC(=S)NC(=O)c3ccccc3)c(C(=O)O)c2C1

>  <experimental_system>
RacWT

>  <pEC50>
7.05

$$$$
>  <compound_structure_string>
COc1cccc(C(=O)NC(=S)Nc2sc3c(c2C(=O)O)CC(C)(C)OC3)c1

>  <experimental_system>
RacWT

>  <pEC50>
6.85

$$$$
